# credit: the supplement of paper PMC10567573

B1: IMPA1 (parent)
chain: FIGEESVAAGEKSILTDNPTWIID

Variants of: B1
Test protocol: protein stability index of a GFP-peptide fusion (GPS, HEK-293T) (PSI 1-6); higher = more stable;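 note: lentivirally expressed fusions sorted by FACS into six bins by GFP to DsRed ratio, PSI derived from sequencing read proportions per bin multiplied by bin number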
Applied conditions: c terminus: a fixed tail appended
Readout type: protein stability index
// no unit, no text: just the number

Given the variant FIGEESVAAGEKSILPDNPTWIID [T16P] , what is its reported protein stability index?
1.26

Same thing, different variant: FIGEESVAAGEKSILTDNPVWIID [T20V]
2.65

Same thing, different variant: FIGEESVAAGEKSILTVNPTWIID [D17V]
1.55

Same thing, different variant: FIGEESVAAGEKSILTDNITWIID [P19I]
2.32

Same thing, different variant: FIGEESVAAGEKHILTDNPTWIID [S13H]
1.96

Same thing, different variant: FIGPESVAAGEKSILTDNPTWIID [E4P]
1.77

Same thing, different variant: FIGEESVAFGEKSILTDNPTWIID [A9F]
2.04

Same thing, different variant: FIGEESVADGEKSILTDNPTWIID [A9D]
2.98

Same thing, different variant: FIGEYSVAAGEKSILTDNPTWIID [E5Y]
2.52

Same thing, different variant: FIGEESVAHGEKSILTDNPTWIID [A9H]
1.8

Same thing, different variant: FIGEESVAAGEKSILTDNPTWEID [I22E]
4.71

Same thing, different variant: FIGEESVAAGEKSILTDNPTWIIL [D24L]
2.05

Same thing, different variant: FIGEESVAAGEKSILTDNPTWIII [D24I]
1.16

Same thing, different variant: FIGEESVFAGEKSILTDNPTWIID [A8F]
1.84
